From: patent US20250313625A1

For each entry below, report its koff value.
study.target: T1, human LAG3 (form used in Octet, Biacore and HDX-MS not given) (human, UniProt P18627 23-450, limits assumed)
T1 sequence (looked up): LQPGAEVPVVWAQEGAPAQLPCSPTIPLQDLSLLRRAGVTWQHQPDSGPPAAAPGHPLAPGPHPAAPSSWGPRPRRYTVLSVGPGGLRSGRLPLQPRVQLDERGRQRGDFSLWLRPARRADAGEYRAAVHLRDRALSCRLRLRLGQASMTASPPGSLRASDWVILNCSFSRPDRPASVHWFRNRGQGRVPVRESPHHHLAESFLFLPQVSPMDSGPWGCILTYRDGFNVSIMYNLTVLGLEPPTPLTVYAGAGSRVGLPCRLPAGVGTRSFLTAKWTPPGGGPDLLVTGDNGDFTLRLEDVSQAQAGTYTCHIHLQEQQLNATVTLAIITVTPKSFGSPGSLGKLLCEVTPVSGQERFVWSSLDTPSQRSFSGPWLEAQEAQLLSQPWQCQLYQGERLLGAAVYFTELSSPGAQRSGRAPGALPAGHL
procedure.summary: BLI (Octet), 1:1 fit

Task item: Look at this binder and give its reported koff. 023c (antibody, human IgG4, V domains shown, human IgG4 S228P / kappa chimeric antibody; also called chimeric antibody 023; ES005-023c; not shown: human kappa light chain constant region (pcDNA3.4-hIgGk vector)) VH: QIQLVQSGPVLKKPGETVKISCKASGYTFTESPMNWVKQAPGRGFKWMGMIYTDTGEPTYAEEFKGRFAFSLETSASTAYLQINNLKSEDTATYFCVSDYGSILYWYFDVWGTGTTVTVSS VL: DIVMTQSHKFMSTSVGDRVSITCKASQDVSTAVAWYQQTPGQSPKLLIYSASYRYTGVPDRFTGSGSGTDFTFTISSVQAEDLAVYYCQQHYNSPPTFGAGTKLELK
Reply: 0.000233 s⁻¹

Task item: Can you share its koff? I mean this binder: 021c (antibody, human IgG4, V domains shown, human IgG4 S228P / kappa chimeric antibody; also called chimeric antibody 021; not shown: human kappa light chain constant region (pcDNA3.4-hIgGk vector)) VH: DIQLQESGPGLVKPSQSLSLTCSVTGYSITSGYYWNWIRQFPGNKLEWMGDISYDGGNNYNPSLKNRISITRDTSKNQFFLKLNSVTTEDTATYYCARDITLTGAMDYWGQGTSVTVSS VL: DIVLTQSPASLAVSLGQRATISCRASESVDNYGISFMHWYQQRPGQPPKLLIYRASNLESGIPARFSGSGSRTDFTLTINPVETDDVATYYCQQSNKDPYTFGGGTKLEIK
Reply: 0.000905 s⁻¹

Task item: Any idea what koff was measured for 029c (antibody, human IgG4, V domains shown, human IgG4 S228P / kappa chimeric antibody; also called chimeric antibody 029; not shown: human kappa light chain constant region (pcDNA3.4-hIgGk vector)) VH: DVKLVESGEDLVKPGGSLKLSCAASGFTFSSYAMSWVRQTPEKRLEWVAYVTSGGDYIYYADTVKGRFTISRDDVRNTLYLQMSSLKSEDTAMYYCTRVAYDYEWYFDVWGTGAPVTVSS VL: DIVMTQSHKFMSTSVGDRVSITCKASQDVTTAVAWYQQKPGQSPKLLIYSASYRYTGVSDRFTGSGSGTDFTFTISSVQAEDLALYYCQQHDSSPWTFGGGTKLEIK ?
Reply: 0.00139 s⁻¹

Task item: Entry under review: TSR-033 (antibody, V domains shown) VH: EVQLVQSGAEVKKPGATVKISCKASGFSIKDDYIHWVQQAPGKGLEWMGWIDAMNDDSQYSSKFQGRVTITVDTSTNTAYMKLSSLRSEDTAVYYCTYAFGGYWGQGTTVTVSS VL: DIVMTQTPLSLSVTPGQPASISCRSSQSLVHSDSNTYLHWYLQKPGQSPQLLIYLVSNRFSGVPDRFSGSGSGTDFTLKISRVEAEDVGVYFCGQSTHVPYAFGGGTKVEIK . Reported koff?
Reply: 0.000674 s⁻¹
